Provide the recorded pIC50 for the entries that follow.
# tgt: Mouse AhR (Mus musculus)
# Sequence (P30561 1-848): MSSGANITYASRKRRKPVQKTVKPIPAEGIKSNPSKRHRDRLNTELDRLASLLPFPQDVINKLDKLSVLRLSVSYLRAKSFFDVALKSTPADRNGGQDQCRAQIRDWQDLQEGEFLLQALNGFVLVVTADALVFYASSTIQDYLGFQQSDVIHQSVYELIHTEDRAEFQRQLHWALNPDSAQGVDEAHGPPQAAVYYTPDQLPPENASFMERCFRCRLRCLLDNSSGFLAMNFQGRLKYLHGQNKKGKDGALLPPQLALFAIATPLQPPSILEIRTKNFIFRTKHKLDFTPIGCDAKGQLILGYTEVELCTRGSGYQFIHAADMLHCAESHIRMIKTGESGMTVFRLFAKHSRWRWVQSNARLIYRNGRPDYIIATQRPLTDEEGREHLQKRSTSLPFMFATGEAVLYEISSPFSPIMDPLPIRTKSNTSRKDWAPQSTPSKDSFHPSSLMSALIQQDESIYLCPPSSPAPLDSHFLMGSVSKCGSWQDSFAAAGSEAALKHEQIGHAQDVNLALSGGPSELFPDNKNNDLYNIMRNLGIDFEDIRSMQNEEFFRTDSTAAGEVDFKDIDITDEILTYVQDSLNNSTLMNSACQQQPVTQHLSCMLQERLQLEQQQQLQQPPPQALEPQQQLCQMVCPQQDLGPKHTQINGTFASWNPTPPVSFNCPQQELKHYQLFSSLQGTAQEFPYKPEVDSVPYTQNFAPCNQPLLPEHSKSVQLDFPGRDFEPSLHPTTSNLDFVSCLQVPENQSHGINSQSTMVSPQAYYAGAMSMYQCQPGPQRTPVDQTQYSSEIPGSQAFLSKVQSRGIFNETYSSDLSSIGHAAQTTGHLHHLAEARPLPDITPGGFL
# assayName: Transactivation assay in mouse cell line (in vitro assay 2: antagonism)
# experimentalParameters: Hepa 1c1c7 cells, AHR inducible (DRE) firefly luciferase reporter, 200 μM kynurenic acid, 20 hours
Answers are plain numbers, as −log10 of the molar value.

molecule | measuredAttribute | measuredNumber
Cc1nn(C)cc1-c1nc(C(=O)N[C@@H](C)CO)cc(-c2ccc(Cl)cc2)n1 | pIC50 | 5.82
C[C@H](NC(=O)c1cc(-c2ccc(OC(F)(F)F)cc2)nc(-c2cnn(C)c2)n1)C(C)(C)O | pIC50 | 8.49
Cn1cc(-c2nc(C(=O)NCC(C)(C)O)cc(-c3ccc(Cl)cc3)n2)cn1 | pIC50 | 7.24
Cn1cc(-c2nc(C(=O)N[C@H](CO)CF)cc(-c3ccc(OC(F)(F)F)cc3)n2)cn1 | pIC50 | 8.40
Cn1cc(-c2nc(C(=O)N[C@@H]3CCC[C@H]3O)cc(-c3ccc(OC(F)(F)F)cc3)n2)cn1 (stereo in doubt) | pIC50 | 7.25

Would you be so kind as to report pIC50 for each listed record?
1. Cc1noc(C)c1-c1nc(C(=O)N[C@@H](C)CO)cc(-c2ccc(OC(F)(F)F)cc2)n1
2. Cn1cc(-c2nc(C(=O)NC(CO)C3CCC3)cc(-c3ccc(OC(F)(F)F)cc3)n2)cn1 (stereo not shown)
3. CC(C)(O)CNC(=O)c1cc(-c2ccc(OC(F)(F)F)cc2)nc(-c2cccnc2)n1
4. C[C@H](NC(=O)c1cc(-c2ccc(C(F)F)cc2)nc(-c2cccnc2)n1)C(C)(C)O

OUTPUT:
[5.27, 7.61, 8.11, 8.17]
